- STUDY TARGET: Toll-like receptor 7 (Homo sapiens, UniProt Q9NYK1)
- Sequence (Q9NYK1 whole entry): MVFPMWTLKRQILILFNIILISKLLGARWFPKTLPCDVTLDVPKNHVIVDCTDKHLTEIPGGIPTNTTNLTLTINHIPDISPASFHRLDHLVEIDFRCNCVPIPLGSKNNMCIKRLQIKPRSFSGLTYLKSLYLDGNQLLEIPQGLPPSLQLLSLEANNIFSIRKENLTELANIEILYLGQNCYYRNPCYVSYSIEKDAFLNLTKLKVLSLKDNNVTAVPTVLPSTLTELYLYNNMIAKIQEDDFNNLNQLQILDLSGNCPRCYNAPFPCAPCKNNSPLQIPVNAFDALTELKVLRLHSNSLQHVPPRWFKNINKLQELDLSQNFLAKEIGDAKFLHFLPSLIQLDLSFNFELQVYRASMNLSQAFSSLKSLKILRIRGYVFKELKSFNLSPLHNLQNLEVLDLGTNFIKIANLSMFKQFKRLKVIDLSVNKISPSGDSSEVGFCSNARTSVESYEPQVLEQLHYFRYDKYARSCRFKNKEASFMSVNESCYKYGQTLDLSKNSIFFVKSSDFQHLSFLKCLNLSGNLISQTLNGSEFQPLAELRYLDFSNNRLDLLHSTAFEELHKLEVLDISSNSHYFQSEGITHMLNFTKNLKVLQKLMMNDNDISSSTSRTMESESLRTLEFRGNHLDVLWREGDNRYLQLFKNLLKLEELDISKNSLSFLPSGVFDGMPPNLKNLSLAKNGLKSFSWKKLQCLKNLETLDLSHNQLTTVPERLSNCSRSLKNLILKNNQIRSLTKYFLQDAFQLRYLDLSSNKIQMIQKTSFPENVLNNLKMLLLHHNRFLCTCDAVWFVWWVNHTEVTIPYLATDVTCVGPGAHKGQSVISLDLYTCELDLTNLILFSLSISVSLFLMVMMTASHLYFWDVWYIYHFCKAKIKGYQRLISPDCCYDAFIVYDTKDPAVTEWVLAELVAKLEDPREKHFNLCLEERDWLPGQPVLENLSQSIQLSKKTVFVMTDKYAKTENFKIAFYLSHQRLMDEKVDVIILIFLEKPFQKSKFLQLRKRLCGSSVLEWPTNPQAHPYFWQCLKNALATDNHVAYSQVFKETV
Measured pEC50, listed per entry for reference.
// returns pEC50 (minus log10 of molar concentration), number only

Study these solved cases before continuing.
1) CCN(CC)Cc1nc2c(N)nc3ccccc3c2n1CC(C)(C)O    5.11
2) CCc1nc2c(N)nc3ccccc3c2n1Cc1ccccc1    6.33
3) CCCc1nc2c(N)nc3ccccc3c2n1Cc1ccccc1    6.19

If you can, please state the reported pEC50 value of CCNCc1nc2c(N)nc3ccccc3c2n1Cc1ccccc1 .
6.41

Same lookup for CCCCc1nc2c(NO)nc3ccccc3c2n1Cc1ccccc1 , please.
6.14

And CCCCCc1nc2c(N)nc3ccccc3c2n1Cc1ccccc1 ?
7.04

// same read-out, input: CCCCc1nc2c(N)nc3ccccc3c2n1Cc1ccccc1
7.23

Field entry: C#CCCc1nc2c(N)nc3ccccc3c2n1Cc1ccccc1
6.68

Cc1nc2c(N)nc3ccccc3c2n1Cc1ccccc1 ?
6.02

Next entry: CCCCCCc1nc2c(N)nc3ccccc3c2n1Cc1ccccc1
6.32
